TEST: M. tuberculosis growth inhibition, HTS (AID 1259417);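 further: bacteria grown with compound for 5 days at 37 °C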
TEST CONDITIONS: M. tuberculosis growth inhibition; stronger effect = higher value; concentration not given here
Out of some 1,100 compounds screened, about 760 (69%) were called active. The set was probably picked from earlier hits. The list shows a part of the results.
QUANTITY MEASURED: inhibition (%)
Field format: number, assumed %, no unit text.

// recorded inhibition for CCc1c(C)sc(NC(=O)c2c(F)c(F)c(F)c(F)c2F)c1C(=O)OC(C)C : 95.8

// recorded inhibition for Cc1ccccc1C(=O)Nc1sc(Cc2ccccc2)c(C)c1C(N)=O : -9.31

// recorded inhibition for Cc1ccc2nc(NCc3ccccc3)[nH]c2c1 : 23.1

// recorded inhibition for CCn1c(Sc2ncnc3ccccc23)nc2ccccc21 : 57.9

// recorded inhibition for Cc1ccc(OCCN2CCN(c3nc(NCc4ccccc4)c4ccccc4n3)CC2)cc1 : -0.136

// recorded inhibition for COC(=O)c1sc(NC(=O)c2c(F)c(F)c(F)c(F)c2F)c(C(N)=O)c1C : 96.9

// recorded inhibition for CCOC(=O)c1c(-c2ccc(C)o2)csc1NC(=S)NC(=O)N(C)C : -1.32

// recorded inhibition for CCOC(=O)c1c(NC(=O)c2cccc(OC)c2)sc(C)c1-c1ccccc1 : -15.9

// recorded inhibition for CCOC(=O)c1c(NC(=O)c2c(F)c(F)c(F)c(F)c2F)sc(C(=O)OC)c1C : 97.6

// recorded inhibition for CCc1ccccc1-n1c(=O)oc2ccc(Cl)cc2c1=O : 100

// recorded inhibition for Cc1ccc(-n2c(=O)oc3ccc(Cl)cc3c2=O)cc1Cl : 101

###

TEST: M. tuberculosis growth inhibition, HTS (AID 1259417);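 further: bacteria grown with compound for 5 days at 37 °C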
TEST CONDITIONS: M. tuberculosis DsRed fluorescence growth inhibition; stronger effect = higher value; concentration not given here
About 760 (69%) of roughly 1,100 compounds were called active. So high a share suggests a set chosen from earlier hits. This is one part of the list.
QUANTITY MEASURED: inhibition (%)
Field format: number, assumed %, no unit text.

// recorded inhibition for COc1ccc(-c2cc(C(=O)NN=CC=Cc3ccccc3OC)[nH]n2)cc1 : 9.99

// recorded inhibition for CCOC(=O)C(Oc1ccc2oc(C)c(C(=O)OC)c2c1)c1ccccc1 (stereo not drawn) : -0.568

// recorded inhibition for O=C(Nc1nnc(-c2ccco2)o1)c1ccc(Oc2ccccc2)cc1 : 70.2

// recorded inhibition for CCCCOc1ccc(C(=O)Nc2nnc(-c3ccco3)o2)cc1 : 44.2

// recorded inhibition for Cc1ccc(NC(=O)CC2COc3ccccc3O2)cc1Cl (stereo not drawn) : 2.96

// recorded inhibition for Fc1ccc(Nc2nc(-c3ccccn3)cs2)cc1 : 93.9

// recorded inhibition for COc1ccc(SN=C2C(C)=CC(=O)C=C2C)cc1 : 5.38

// recorded inhibition for Cn1c(Sc2ccc([N+](=O)[O-])c3cccnc23)nnc1-c1ccccc1 : 12

// recorded inhibition for Cc1cc(OCCCn2ccnc2)ccc1Cl : 98.9

// recorded inhibition for CC12CC3CC(C)(C1)CC(CNCc1ccccc1O)(C3)C2 : 98.9

// recorded inhibition for Cc1nn(-c2nc3ccccc3[nH]2)c(N)c1-c1ccccc1 : 50.6

// recorded inhibition for Cn1c(Sc2cnn(-c3ccccc3)c(=O)c2Br)nnc1-c1ccccc1 : 49.6

// recorded inhibition for FC(F)(F)c1ccccc1Nc1nc(-c2ccccn2)cs1 : 90.1

// recorded inhibition for CCc1ccc(/C=c2\s/c(=C/C(=O)C(C)(C)C)[nH]c2=O)cc1 : 99.8

// recorded inhibition for NC1CCN(c2c(F)cc3c(=O)c(C(=O)O)cn(C4CC4)c3c2Cl)C1 (stereo not drawn) : 99.8

// recorded inhibition for CCOC(=O)CSc1nnc(-c2ccc(Cl)cc2Cl)o1 : 78.6

// recorded inhibition for COC(=O)C(Oc1ccc2c(c1)oc(=O)c1cc(OC)ccc12)c1ccccc1 (stereo not drawn) : 27.2

// recorded inhibition for COc1c(N2C[C@@H]3CCCN[C@@H]3C2)c(F)cc2c(=O)c(C(=O)O)cn(C3CC3)c12 : 101

// recorded inhibition for CN(C)c1ccc(Nc2nc(-c3ccccn3)cs2)cc1 : 54.1

// recorded inhibition for Cc1cc2c(cc1C)N(Cc1ccc(C(C)(C)C)cc1)C1=NCCCN12 : 95

// recorded inhibition for Cc1cccc(NC(=O)c2cc(-c3cccs3)nc3ccccc23)n1 : 8.52

// recorded inhibition for COc1ccc(C(=O)Nc2cc(OC)c(NC(=O)c3ccco3)cc2OC)cc1 : 0.929

// recorded inhibition for O=C(/C=C/c1ccco1)Nc1nc(-c2ccccn2)cs1 : 88.5

###

TEST: M. tuberculosis growth inhibition, HTS (AID 1259417);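 further: bacteria grown with compound for 5 days at 37 °C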
TEST CONDITIONS: M. tuberculosis growth inhibition; stronger effect = higher value; concentration not given here
The campaign covered roughly 1,100 compounds. About 760 (69%) were called active. So high a share suggests a set chosen from earlier hits. This is one part of the list.
QUANTITY MEASURED: inhibition (%)
Field format: number, assumed %, no unit text.

// recorded inhibition for CCOC(=O)c1c(NC(=O)c2cccc([N+](=O)[O-])c2)sc(CC)c1-c1ccccc1 : -29.7

// recorded inhibition for CCc1ccc(-c2ccc(SCC(N)=O)nn2)cc1 : 41

// recorded inhibition for Cc1ccc(NC(=O)C(=O)NNC(=O)c2ccco2)cc1Cl : 7.85

// recorded inhibition for CCn1ccnc1CN(C)Cc1cn(-c2cccc(C)c2)nc1-c1cccc(F)c1 : 15.5

// recorded inhibition for CCOC(=O)Cn1cc(C#N)c2cccc(CC)c21 : 56.3

// recorded inhibition for O=C(CCNc1cccc(Cl)c1)c1ccco1 : 96.8

// recorded inhibition for CCc1c(C)sc(NC(=O)c2ccc(Br)cc2)c1C(N)=O : 7.97

// recorded inhibition for COC(=O)c1c(-c2ccccc2)csc1NC(=O)c1cc(OC)cc(OC)c1 : -6.55

// recorded inhibition for CCCCSc1ccc(NCCC(=O)c2ccco2)cc1 : 60.7

// recorded inhibition for CC(=O)c1ccc(NCCC(=O)c2ccco2)cc1 : 59.4

// recorded inhibition for CCSc1ccc(CC(=O)Nc2nnc(-c3ccc4c(c3)OCCO4)o2)cc1 : 7.09

// recorded inhibition for CCSc1ccc(C(=O)Nc2nnc(-c3ccco3)o2)cc1 : 91.8

###

TEST: M. tuberculosis growth inhibition, HTS (AID 1259417);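 further: bacteria grown with compound for 5 days at 37 °C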
TEST CONDITIONS: M. tuberculosis DsRed fluorescence growth inhibition; stronger effect = higher value; concentration not given here
Among all 1,100 compounds or so, about 760 (69%) were called active. So high a share suggests a set chosen from earlier hits. The list shows a part of the results.
Hi there, I'd appreciate the recorded inhibition for every entry that follows.
Field format: number, assumed %, no unit text.

// recorded inhibition for COC(=O)C(C)Oc1ccc2c(=O)c(-c3ccc(Br)cc3)c(C)oc2c1 (stereo unspecified) : 32.6

// recorded inhibition for Cc1ccc(-n2c(=O)oc3ccc(Cl)cc3c2=O)cc1Cl : 100

// recorded inhibition for Cc1ccc(C)c(-c2nnc(NC(=O)C(C)(C)C)o2)c1 : 84.1

// recorded inhibition for CCc1ccccc1-n1c(=O)oc2ccc(Cl)cc2c1=O : 101

// recorded inhibition for CC12CCC(C(=O)Nc3ccc(OC(F)(F)F)cc3)(CC1=O)C2(C)C (stereo unspecified) : 94.8

// recorded inhibition for CCOC(=O)COc1ccc2c(=O)c(-c3ccc(OC)cc3)c(C)oc2c1 : 83.6

###

TEST: M. tuberculosis growth inhibition, HTS (AID 1259417);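 further: bacteria grown with compound for 5 days at 37 °C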
TEST CONDITIONS: M. tuberculosis growth inhibition; stronger effect = higher value; concentration not given here
In all, about 1,100 compounds went through this assay and about 760 (69%) were called active. So high a share suggests a set chosen from earlier hits. The list shows a part of the results.
QUANTITY MEASURED: inhibition (%)
Field format: number, assumed %, no unit text.

// recorded inhibition for O=C(COc1ccc2c(-c3ccccc3)cc(=O)oc2c1)OC1CCCCC1 : 53.3

// recorded inhibition for O=C(Oc1ccccc1)c1ccc(S(=O)(=O)N2CCCCC2)cc1 : 46.3

// recorded inhibition for COC(=O)c1ccc(COC(=O)c2ccccc2Cl)cc1 : 15.3

// recorded inhibition for CC(C)c1ccc(-c2csc(NC(=O)c3ccc4c(c3)OCCO4)n2)cc1 : -26.1

// recorded inhibition for CCOC(=O)COc1ccc2c(=O)c(-c3ccccc3OC)coc2c1 : 27

// recorded inhibition for COC(=O)COc1ccc2c(=O)c(-c3ccccc3OC)coc2c1 : 38.3

// recorded inhibition for Nc1ncnc(Sc2nc3ccccc3s2)c1[N+](=O)[O-] : 99.4

// recorded inhibition for CN(Cc1ccccc1)C(=S)NC(=O)c1cccs1 : 33.4

// recorded inhibition for Oc1ccc(Br)cc1C1=NNC(c2ccc(F)cc2)C1 (stereo not drawn) : 100

// recorded inhibition for Cc1cc(C2N=C(N)Nc3nc4ccccc4n32)c(C)n1-c1ccccc1Cl (stereo not drawn) : -25.2

// recorded inhibition for O=C(CC12CC3CC(CC(C3)C1)C2)Nc1cccc(C(F)(F)F)c1 : 85.6

// recorded inhibition for CC(C)(C)c1ccc(C(=O)Nc2ccc(S(=O)(=O)Nc3nccs3)cc2)cc1Br : -12.7

// recorded inhibition for COc1ccccc1-c1nnc(Nc2nc3c(F)cccc3s2)o1 : 84.8

// recorded inhibition for O=C(CSc1nnc(-c2cccnc2)o1)N1CCC(Cc2ccccc2)CC1 : 86.2

// recorded inhibition for CCOC(=O)c1cnc(-n2nc(C)cc2C)nc1Nc1ccc(OC)cc1 : 30.7

// recorded inhibition for COC(=O)COc1ccc2c(=O)c(Oc3ccccc3)c(C)oc2c1 : 88.9

// recorded inhibition for Cn1c(NC(=O)c2ccccc2)nc2ccccc21 : 99.7

// recorded inhibition for O=C(COc1ccc(C(=O)NCc2ccccc2)cc1)OC1CCCCC1 : 52.9

// recorded inhibition for Cc1ccc(NC(=O)c2ccc(OCC(=O)OC3CCCCC3)cc2)cc1 : 78.1

// recorded inhibition for CC1=NN(c2nc(-c3ccc(Cl)cc3)cs2)C(=O)C1C (stereo not drawn) : 7.17

// recorded inhibition for CCOCCOC(=O)COc1ccc2c(-c3ccccc3)cc(=O)oc2c1 : 89

// recorded inhibition for Cc1ccc(NC(=O)C23CC4CCC(CC(C4)C2)C3)cc1 : 96.9

// recorded inhibition for O=C(CC12CC3CC(CC(C3)C1)C2)Nc1ccc2c(c1)OCCO2 : 16.6
